molecular target: CB1 (Homo sapiens, UniProt P21554); experiment: CB1 β-arrestin recruitment antagonist assay (Eurofin's); conditions: β-arrestin recruitment, antagonist mode; 0.016 μM CP55940; read-out: RC50 (IC50), antagonist, CB1
Sequence (P21554 whole entry): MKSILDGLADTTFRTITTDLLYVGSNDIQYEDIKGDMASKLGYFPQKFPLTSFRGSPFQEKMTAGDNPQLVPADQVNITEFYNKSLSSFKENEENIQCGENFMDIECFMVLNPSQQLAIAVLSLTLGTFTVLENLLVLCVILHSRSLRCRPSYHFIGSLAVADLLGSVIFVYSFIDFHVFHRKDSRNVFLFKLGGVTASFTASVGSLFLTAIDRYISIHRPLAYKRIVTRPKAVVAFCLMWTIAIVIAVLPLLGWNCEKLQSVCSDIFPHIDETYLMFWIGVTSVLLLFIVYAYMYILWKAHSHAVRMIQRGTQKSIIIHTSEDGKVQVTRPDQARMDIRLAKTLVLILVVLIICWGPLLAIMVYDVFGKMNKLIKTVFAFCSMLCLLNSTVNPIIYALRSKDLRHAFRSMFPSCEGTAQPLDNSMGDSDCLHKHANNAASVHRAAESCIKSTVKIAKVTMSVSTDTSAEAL
Provide the reported IC50 of each item.
The figure you give is taken to be in nM; do not add the unit.

Quote CB1 (Homo sapiens, UniProt P21554) IC50 for entry Cc1c(C(=O)NN2CCOCC2)nn(-c2ccc(Cl)cc2Cl)c1-c1ccc(I)cc1 [AM281, reference compound] . 10.5

Quote CB1 (Homo sapiens, UniProt P21554) IC50 for entry C=C(C)[C@H]1CCC(C)=C[C@@H]1c1c(O)cc(CC[Si](C)(C)CCCC)cc1O . 2230

Quote CB1 (Homo sapiens, UniProt P21554) IC50 for entry C=C(C)[C@H]1CCC(C)=C[C@@H]1c1c(O)cc([Si](C)(C)CCCCCC)cc1O . 2070

---

biological target: UniProtKB P34972; experiment: CB2 β-arrestin recruitment agonist assay (Eurofin's); details: β-arrestin recruitment, agonist mode; read-out: RC50 (EC50), agonist, CB2
assay.endpoint: EC50 (nM)
The figure you give is taken to be in nM; do not add the unit.

# return recorded EC50 for entry C=C(C)[C@H]1CCC(C)=C[C@@H]1c1c(O)cc([Si](C)(C)CCCCCC)cc1O 4.14

# return recorded EC50 for entry C=C(C)[C@H]1CCC(C)=C[C@@H]1c1c(O)cc(CC[Si](C)(C)CCCC)cc1O 18

---

molecular target: CB1 (Homo sapiens); test: CB1 β-arrestin recruitment agonist assay (Eurofin's); details: agonist mode, read-out: RC50 (EC50), agonist, CB1
assay.endpoint: pEC50
To interpret pEC50, take it as minus log10 of a concentration measured in moles per litre.

# return recorded pEC50 for entry C=C(C)[C@H]1CCC(C)=C[C@@H]1c1c(O)cc([Si](C)(C)CCCCCC)cc1O 7.48

---

target: CB2 (Homo sapiens, UniProt P34972); test: CB2 β-arrestin recruitment antagonist assay (Eurofin's); format: cell-based; settings: β-arrestin recruitment, antagonist mode; 0.0053 μM CP55940; read-out: RC50 (IC50), antagonist, CB2
Sequence (P34972 whole entry): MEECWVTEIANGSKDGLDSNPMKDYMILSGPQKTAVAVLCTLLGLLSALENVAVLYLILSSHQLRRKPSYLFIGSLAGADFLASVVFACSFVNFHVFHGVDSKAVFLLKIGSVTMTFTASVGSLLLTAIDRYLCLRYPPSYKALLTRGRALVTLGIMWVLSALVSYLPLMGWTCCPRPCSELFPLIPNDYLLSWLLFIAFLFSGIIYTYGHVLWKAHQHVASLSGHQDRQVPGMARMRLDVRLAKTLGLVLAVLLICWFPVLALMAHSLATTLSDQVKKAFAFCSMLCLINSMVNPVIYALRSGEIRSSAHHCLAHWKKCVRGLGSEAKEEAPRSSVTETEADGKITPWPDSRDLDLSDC
assay.endpoint: pIC50
To interpret pIC50, take it as minus log10 of a concentration measured in moles per litre.

# return recorded pIC50 for entry C=C(C)[C@H]1CCC(C)=C[C@@H]1c1c(O)cc([Si](C)(C)CCCCCC)cc1O [AAC-01] 5.73
